The measurements presented in this section are drawn from the C3SDB collision cross section collection.

Would you kindly list collision cross section (N2) for each of these compounds?
Condition: [M+H]+; instrument: DT; single field, calibrated with ESI Low Concentration Tuning Mix (Agilent)
Answers are plain numbers, in Å².

Below are 3 compounds. Give each one its collision cross section (N2).
1. Cc1ncc(CO)c(C=O)c1O [PYRIDOXAL]
2. C[C@H](CCC(=O)NCC(=O)O)[C@H]1CC[C@H]2[C@@H]3[C@H](O)C[C@@H]4C[C@H](O)CC[C@]4(C)[C@H]3C[C@H](O)[C@]12C [GLYCOCHOLATE]
3. N[C@@H](CCC(=O)N[C@@H](CS)C(=O)NCC(=O)O)C(=O)O [GLUTATHIONE REDUCED]

(A)
1: 131.4; 2: 199.7; 3: 167.8

// each listed compound needs a value for collision cross section (N2)
1. C[N+](C)(C)CCOP(=O)([O-])OP(=O)(O)OC[C@H]1O[C@@H](n2ccc(N)nc2=O)[C@H](O)[C@@H]1O [CITICOLINE]
2. Nc1nc(=O)c2ncn([C@H]3C[C@H](O)[C@@H](COP(=O)(O)OP(=O)(O)O)O3)c2[nH]1 [DGDP]
3. CC(=O)OC[C@H](N)C(=O)O [O-ACETYLSERINE]

(A)
198.3
188.5
130.5

Would you be so kind as to report collision cross section (N2) for each listed record?
1. NCC[Se][Se]CCN [SELENOCYSTAMINE]
2. NC[C@H](O)CC[C@H](N)C(=O)O [5-HYDROXYLYSINE]

(A)
[135.6, 134.9]

====

Condition: [M-H]-; instrument: TW; calibrated with phosphatidylcholines (ESI+) and phosphatidylethanolamines (ESI-), doubly charged cardiolipins calibrated with poly-DL-…
Reported endpoint: collision cross section (N2)
Include the unit after the number when you answer.

Some entries whose results are on file:
Compound	collision cross section (N2)
CCCCCCCCC1CC1CCCCCCCC(=O)OC[C@@H](O)COP(=O)(O)OCC(O)CO (stereo partly drawn) [LPG(19:1)]	221.18 Å²
CCCCCCCCCCCCCCC(=O)O[C@H](CO)COP(=O)(O)OCC(O)CO (stereo partly drawn) [LPG(15:0)]	208.96 Å²
CCCCCC/C=C\CCCCCCCC(=O)OC[C@H](O)COP(=O)(O)OC[C@@H](COC(=O)CCCCCCC/C=C\CCCCCC)OC(=O)CCCCCCCC1CC1CCCCCCCC (stereo partly drawn) [AcylPG(51:3)]	325 Å²
CCCCCC/C=C\CCCCCCCC(=O)OC[C@H](COP(=O)(O)OC[C@@H](O)COC(=O)CCCCCCCCCCCCCCC)OC(=O)CCCCCCCC1CC1CCCCCC (stereo partly drawn) [AcylPG(49:2)]	318.87 Å²
CCCCCC/C=C/CCCCCCCC(=O)OC[C@@H](O)COP(=O)([O-])OCC[NH3+] [LPE(16:1/0:0)]	203.75 Å²
CCCCCC/C=C\CCCCCCCC(=O)OC[C@H](COP(=O)(O)OCCNC(=O)CCCCCCCCCCCCCCC)OC(=O)CCCCCCCC1CC1CCCCCCCC (stereo partly drawn) [AcylPE(51:2)]	325.65 Å²
CCCCCC/C=C\CCCCCCCC(=O)OC[C@H](COP(=O)(O)OCCNC(=O)CCCCCCCCCCCCCCC)OC(=O)CCCCCCCCCCCCCC [AcylPE(47:1)]	313.42 Å²
CCCCCC/C=C\CCCCCCCC(=O)OCC(COP(=O)(O)OCCN)OC(=O)CCCCCCCCCCCCC (stereo not drawn) [PE(30:1)]	248.78 Å²

Provide collision cross section (N2) for all items below, preserving their order.
1. CCCCCCCCCCCCCCCC(=O)OCC(COP(=O)(O)OCC(O)CO)OC(=O)CCCCCCCCCCCCCCC (stereo not drawn) [PG(32:0)]
2. CCCCCCCC/C=C\CCCCCCCC(=O)OCC(COP(=O)(O)OCCN)OC(=O)CCCCCCC/C=C\CCCCCCCC (stereo not drawn) [PE(36:2)]
3. CCCCCC/C=C\CCCCCCCC(=O)OC[C@H](COP(=O)(O)OC[C@@H](O)COC(=O)CCCCCCCCCCCCCCC)OC(=O)CCCCCCCCCCCCC [AcylPG(46:1)]
4. CCCCCC/C=C\CCCCCCCC(=O)OC[C@H](COP(=O)(O)OC[C@@H](O)COC(=O)CCCCCCCCCCCCCCC)OC(=O)CCCCCCC/C=C\CCCCCC [AcylPG(48:2)]
5. CCCCCCCC/C=C/CCCCCCCC(=O)OC[C@@H](O)COP(=O)(O)OCC(O)CO (stereo partly drawn) [LPG(18:1)]

(A)
1. 263.91 Å²
2. 269.17 Å²
3. 310.71 Å²
4. 315.28 Å²
5. 217.72 Å²
